Tested on: 293A cells
measurementProtocol: Cytoprotection under endoplasmic reticulum stress conditions (Tm-induced cell death)
Assay type: cell-based
experimentalSetup: compound concentration inhibiting Tm-induced cell death by 50%, Tm 0.2 µg/mL, reporter cells
pIC50: −log10 of the molar value.
Use 1 when the recorded pIC50 is no lower than 6; use 0 when it is lower.

Lookup: I'd appreciate it if you could say whether OCc1ccc2c(c1)sc1nc(-c3ccc(Cl)cc3)cn12 has pIC50 at least equal to 6.
Found: 1

Lookup: Does the reported pIC50 for CC(C)(C)OC(=O)NCCCOc1cc(-c2cn3c(n2)sc2cc(S(C)(=O)=O)ccc23)ccc1Cl fall at or above the 6 mark?
Found: 0

Lookup: Does the molecule CNC(=O)CCc1ccc2c(c1)sc1nc(-c3ccc(C(F)(F)F)cc3)cn12 have recorded pIC50 that is 6 or more?
Found: 1

Lookup: Exam item: decide whether the reported pIC50 for Cc1ccc2c(c1)sc1nc(-c3ccc(C(F)(F)F)cc3)cn12 is at least 6.
Found: 1

Lookup: Is reported pIC50 greater than or equal to 6 here: CS(=O)(=O)c1ccc2c(c1)sc1nc(-c3ccc(C(F)(F)F)cc3)cn12
Found: 1

Value source: patent EP4741401A1
